target.system: CRF1R
assay.details: cell-based or functional assay
Ends that are not written are not given here.
readout.kind: CRF1R EC50

>>> print(df.to_string())
                                      binder  readout_kind  recorded_measurement
 0  DNPSLSIDLPLLLLRTLLELEKTQSQRERAEQNANIFANV-NH2 [SEQ ID NO 326]    CRF1R EC50               1000 nM
 1  DNPSLSIDLPLFLLRTLLELEKTQSQRERAEQNAIIFASV-NH2 [SEQ ID NO 343]    CRF1R EC50                783 nM
 2  ZGPPISIDLPFQLLRKVIEIEKQEKEKQQAANNANLLANI (not fully specified; C-terminal amide) [SEQ ID NO 275]    CRF1R EC50               1000 nM
 3  ZGPPISIDVPYHLLRKVIEIEKQEKEKQQAANNARLLDTI (C-terminal amide) [SEQ ID NO 376]    CRF1R EC50               1000 nM
 4  ZGPPISIDVPYYLLRKVIEIEKQEKEKQQAANNARLLARI (C-terminal amide) [SEQ ID NO 378]    CRF1R EC50               1000 nM
 5  DNPSLSIDLPLLLLRTLLELEKTQSQRERAEQNAEIFAEV-NH2 [SEQ ID NO 323]    CRF1R EC50               1000 nM
 6  ZGPPISIDLPLHLLRKMIEIEKQEKEKQQAANNALLLDTI (C-terminal amide) [SEQ ID NO 240]    CRF1R EC50                915 nM
 7  ZGPPISIDLPLQLLRKVIEIEKQEKEKQQAANNALLLATI (C-terminal amide) [SEQ ID NO 349]    CRF1R EC50               1000 nM
 8  PSLSIDLPLLLLRTLLELEKTQSQRERAEQNAIIFASV-NH2 [SEQ ID NO 344]    CRF1R EC50                650 nM
 9  ZGPPISIDLPQILLRKMIEIEKQEKEKQQAANNARLLARI (C-terminal amide) [SEQ ID NO 285]    CRF1R EC50               1000 nM
10  ZGPPISIDLPTWLLRKMIEIEKQEKEKQQAANNARLLARI (C-terminal amide) [SEQ ID NO 292]    CRF1R EC50               1000 nM
11  IVLSLDVPIGLLQKVIEIEKQEKEKQQATTNARILARV-NH2 [SEQ ID NO 300]    CRF1R EC50               1000 nM
